Entries annotated with measured Kd
Molecular target: T1, EsCas13d, nuclease-dead (Eubacterium siraeum, UniProt B0MS50, R295A;H300A;R849A;H854A)
T1 sequence: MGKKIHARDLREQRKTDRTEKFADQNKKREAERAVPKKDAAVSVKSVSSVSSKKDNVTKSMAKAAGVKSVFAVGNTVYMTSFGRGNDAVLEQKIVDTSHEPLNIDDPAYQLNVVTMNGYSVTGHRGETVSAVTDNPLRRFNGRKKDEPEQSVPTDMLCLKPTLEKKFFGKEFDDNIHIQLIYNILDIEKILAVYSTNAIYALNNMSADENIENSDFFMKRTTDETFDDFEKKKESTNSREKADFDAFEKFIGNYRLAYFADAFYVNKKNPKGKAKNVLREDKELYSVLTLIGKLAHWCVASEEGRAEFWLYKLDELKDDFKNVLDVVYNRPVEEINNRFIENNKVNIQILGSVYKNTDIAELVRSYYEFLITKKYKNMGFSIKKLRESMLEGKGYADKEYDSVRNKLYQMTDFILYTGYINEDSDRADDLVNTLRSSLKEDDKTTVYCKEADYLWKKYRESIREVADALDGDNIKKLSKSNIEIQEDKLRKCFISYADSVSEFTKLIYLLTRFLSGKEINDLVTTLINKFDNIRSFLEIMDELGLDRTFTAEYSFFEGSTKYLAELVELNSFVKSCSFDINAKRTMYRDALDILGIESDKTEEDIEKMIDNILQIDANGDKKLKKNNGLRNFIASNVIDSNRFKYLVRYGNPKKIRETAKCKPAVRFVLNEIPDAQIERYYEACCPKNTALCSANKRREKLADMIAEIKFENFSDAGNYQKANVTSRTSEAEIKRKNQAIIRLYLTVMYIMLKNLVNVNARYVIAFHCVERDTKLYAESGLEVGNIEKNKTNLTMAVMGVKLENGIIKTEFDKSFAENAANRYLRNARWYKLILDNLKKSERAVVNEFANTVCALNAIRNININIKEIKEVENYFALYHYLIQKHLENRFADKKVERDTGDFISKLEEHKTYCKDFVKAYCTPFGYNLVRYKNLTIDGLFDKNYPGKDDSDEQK
Assay: crRNA (strand 1, pre-loaded); Mg2+; 40 mM Tris-HCl pH 7.5, 150 mM NaCl, 6 mM MgCl2, 1 mM DTT, 0.1% Tween-20, 0.2 mg/ml BSA; 25 C; 10 min per concentration, then washed
Conditions: tags: His6-TwinStrep-SUMO cleaved; N-terminal SNAP kept (SNAP-Surface 488); label: 3' end held by stalled T7 RNA polymerase
Provide the reading as a plain figure in nM.

Identify the reported Kd for the following entry. target 1 MT 5'PFS GGG 3'PFS AAU (mixed) RNA 1: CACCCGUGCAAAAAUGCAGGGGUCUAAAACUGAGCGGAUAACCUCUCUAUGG RNA 2: GGGAAUGGAUCCACAUCUACGAAUUCGGGCCAUAGAGAGGUUAUCCGCUCAAAUAGAUCGGAAGAGCACACGU 28

Further cases:
Identify the reported Kd for the following entry. target 1 MT 5'PFS GCA 3'PFS AUA (mixed) RNA 1: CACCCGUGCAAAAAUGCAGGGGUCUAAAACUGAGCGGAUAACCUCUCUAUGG RNA 2: GGGAAUGGAUCCACAUCUACGAAUUCGCACCAUAGAGAGGUUAUCCGCUCAAUAAGAUCGGAAGAGCACACGU 25.5
